Assay: PK parameters of cabozantinib and measured metabolites in human subjects
Assay type: in vivo
Settings: human, plasma, oral, 140 mg/day
Test readout: Cmax (ng/mL)

I: COc1cc2nccc(Oc3ccc(NC(=O)C4(C(=O)O)CC4)cc3)c2cc1OC [drawing 45]
II: COc1cc2c(Oc3ccc(NC(=O)C4(C(=O)Nc5ccc(F)cc5)CC4)cc3)cc[n+]([O-])c2cc1OC [drawing 46]
III: COc1cc2nccc(Oc3ccc(NC(=O)C4(C(=O)Nc5ccc(F)cc5OS(=O)(=O)O)CC4)cc3)c2cc1OC [drawing 47]
IV: COc1cc2nccc(Oc3ccc(NC(=O)C4(C(=O)Nc5ccc(F)cc5)CC4)cc3)c2cc1OC [Cabozantinib, reference compound]
Task: Order required: smallest reported Cmax first, largest last, for all compounds above. Enter labels, ranked according to the request.
Output: I, II, III, IV

---

Molecular target: KDR (Homo sapiens, UniProt P35968)
Sequence (P35968 20-1356): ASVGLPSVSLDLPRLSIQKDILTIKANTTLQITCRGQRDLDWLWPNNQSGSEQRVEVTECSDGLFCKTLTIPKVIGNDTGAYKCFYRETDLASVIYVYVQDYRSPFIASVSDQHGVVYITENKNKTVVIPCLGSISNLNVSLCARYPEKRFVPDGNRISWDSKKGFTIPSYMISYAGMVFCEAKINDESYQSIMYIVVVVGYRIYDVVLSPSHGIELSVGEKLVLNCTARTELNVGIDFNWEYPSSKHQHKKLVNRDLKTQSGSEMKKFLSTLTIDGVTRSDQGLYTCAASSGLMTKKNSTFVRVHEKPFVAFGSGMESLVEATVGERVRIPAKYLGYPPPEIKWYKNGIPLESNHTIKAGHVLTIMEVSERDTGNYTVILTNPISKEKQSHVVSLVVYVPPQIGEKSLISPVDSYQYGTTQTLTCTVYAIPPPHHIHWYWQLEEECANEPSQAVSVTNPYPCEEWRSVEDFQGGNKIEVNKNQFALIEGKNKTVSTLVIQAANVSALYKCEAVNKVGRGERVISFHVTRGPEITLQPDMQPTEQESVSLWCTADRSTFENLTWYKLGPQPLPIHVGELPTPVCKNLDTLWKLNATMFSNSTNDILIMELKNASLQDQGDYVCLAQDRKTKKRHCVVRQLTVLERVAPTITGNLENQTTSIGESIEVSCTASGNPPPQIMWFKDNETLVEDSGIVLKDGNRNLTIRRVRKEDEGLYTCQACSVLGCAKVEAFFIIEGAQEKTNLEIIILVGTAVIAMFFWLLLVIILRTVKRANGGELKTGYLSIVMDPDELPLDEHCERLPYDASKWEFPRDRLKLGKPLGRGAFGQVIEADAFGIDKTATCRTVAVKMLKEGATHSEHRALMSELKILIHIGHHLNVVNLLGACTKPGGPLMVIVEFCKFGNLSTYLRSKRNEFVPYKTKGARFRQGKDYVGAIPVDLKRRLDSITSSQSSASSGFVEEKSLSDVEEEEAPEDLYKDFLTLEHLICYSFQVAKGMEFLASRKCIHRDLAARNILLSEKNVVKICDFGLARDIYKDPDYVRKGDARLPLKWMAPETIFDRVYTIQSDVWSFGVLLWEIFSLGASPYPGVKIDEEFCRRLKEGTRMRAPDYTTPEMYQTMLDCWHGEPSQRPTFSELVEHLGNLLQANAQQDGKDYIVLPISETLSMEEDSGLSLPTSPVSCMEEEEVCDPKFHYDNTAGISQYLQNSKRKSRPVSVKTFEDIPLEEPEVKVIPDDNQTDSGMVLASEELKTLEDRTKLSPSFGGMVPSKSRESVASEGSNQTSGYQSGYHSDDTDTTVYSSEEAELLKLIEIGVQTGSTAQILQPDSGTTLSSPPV
pIC50: −log10 of the molar value.
Test readout: pIC50

Task: Notebook entry, KDR (Homo sapiens, UniProt P35968) assay: pIC50 of COc1cc2nccc(Oc3ccc(NC(=O)C4(C(=O)Nc5ccc(F)cc5O)CC4)cc3)c2cc1OC = ?
Output: > 7.30

---

Test: PK parameters of cabozantinib and measured metabolites in human subjects
Assay type: in vivo
Settings: human, plasma, oral, 140 mg/day
Test readout: Tmax (h)

Use the examples below as a reference point.
Task: What does the data say about its Tmax? Entry: COc1cc2c(Oc3ccc(NC(=O)C4(C(=O)Nc5ccc(F)cc5)CC4)cc3)cc[n+]([O-])c2cc1OC [drawing 46]
Output: 13.5

Task: Would you kindly repeat that for COc1cc2nccc(Oc3ccc(NC(=O)C4(C(=O)O)CC4)cc3)c2cc1OC [drawing 45] ?
Output: 19

1: COc1cc2nccc(Oc3ccc(NC(=O)C4(C(=O)Nc5ccc(F)cc5OS(=O)(=O)O)CC4)cc3)c2cc1OC [drawing 47]
2: COc1cc2nccc(Oc3ccc(NC(=O)C4(C(=O)Nc5ccc(F)cc5)CC4)cc3)c2cc1OC [Cabozantinib, reference compound]
Task: Given the two records 1 and 2 , choose the one whose Tmax value is lower. // output: label of the selected item
Output: 2
(2: 1.49 h, 1: 24 h)

---

Molecular target: UniProtKB P35916
Sequence (P35916 25-1363): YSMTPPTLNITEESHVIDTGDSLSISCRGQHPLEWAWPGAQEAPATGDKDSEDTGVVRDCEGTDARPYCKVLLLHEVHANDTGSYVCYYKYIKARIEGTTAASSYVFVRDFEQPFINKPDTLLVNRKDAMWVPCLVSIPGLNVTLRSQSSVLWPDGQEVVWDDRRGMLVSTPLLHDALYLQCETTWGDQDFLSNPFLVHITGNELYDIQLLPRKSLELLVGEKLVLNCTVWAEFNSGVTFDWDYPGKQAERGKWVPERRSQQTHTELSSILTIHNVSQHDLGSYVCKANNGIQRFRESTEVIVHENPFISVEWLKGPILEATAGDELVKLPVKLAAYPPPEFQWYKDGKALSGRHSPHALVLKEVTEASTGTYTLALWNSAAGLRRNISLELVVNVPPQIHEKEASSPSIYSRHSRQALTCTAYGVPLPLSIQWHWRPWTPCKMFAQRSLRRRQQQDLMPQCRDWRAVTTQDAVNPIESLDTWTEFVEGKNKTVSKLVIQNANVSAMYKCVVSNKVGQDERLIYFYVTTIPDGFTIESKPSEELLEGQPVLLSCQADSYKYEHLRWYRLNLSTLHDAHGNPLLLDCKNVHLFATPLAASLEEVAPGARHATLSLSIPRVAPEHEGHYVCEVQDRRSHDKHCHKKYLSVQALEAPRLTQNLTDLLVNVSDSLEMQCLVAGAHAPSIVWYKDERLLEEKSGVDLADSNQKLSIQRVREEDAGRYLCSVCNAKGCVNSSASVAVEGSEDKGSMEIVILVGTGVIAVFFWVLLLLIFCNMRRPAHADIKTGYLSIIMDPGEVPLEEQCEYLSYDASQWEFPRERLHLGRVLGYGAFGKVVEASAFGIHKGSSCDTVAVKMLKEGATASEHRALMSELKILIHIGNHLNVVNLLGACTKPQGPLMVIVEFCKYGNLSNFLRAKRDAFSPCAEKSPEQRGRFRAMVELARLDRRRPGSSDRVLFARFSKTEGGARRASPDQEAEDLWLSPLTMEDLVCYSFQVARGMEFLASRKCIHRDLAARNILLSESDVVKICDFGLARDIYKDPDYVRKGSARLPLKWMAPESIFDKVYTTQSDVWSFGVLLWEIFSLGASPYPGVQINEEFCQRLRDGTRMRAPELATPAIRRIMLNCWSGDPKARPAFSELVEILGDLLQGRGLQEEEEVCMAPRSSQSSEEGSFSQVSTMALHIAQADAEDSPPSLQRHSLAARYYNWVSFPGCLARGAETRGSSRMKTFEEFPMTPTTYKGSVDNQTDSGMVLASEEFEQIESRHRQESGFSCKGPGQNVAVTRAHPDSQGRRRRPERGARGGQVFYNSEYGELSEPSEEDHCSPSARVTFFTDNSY
Test readout: IC50

Task: Lookup: IC50 / UniProtKB P35916 / COc1cc2nccc(Oc3ccc(NC(=O)C4(C(=O)Nc5ccc(F)cc5)CC4)cc3)c2cc1OC [Cabozantinib, reference compound]
Output: < 50 nM

---

Assay: PK parameters of cabozantinib and measured metabolites in human subjects
Type: in vivo
Settings: human, plasma, oral, 140 mg/day, eight human subjects, cabozantinib 140 mg/day; time zero to last measurable concentration; read-out: AUC0-t
Test readout: AUC(0-t) (ng·h/mL)

P: COc1cc2nccc(Oc3ccc(NC(=O)C4(C(=O)Nc5ccc(F)cc5)CC4)cc3)c2cc1OC [Cabozantinib, reference compound]
Q: COc1cc2c(Oc3ccc(NC(=O)C4(C(=O)Nc5ccc(F)cc5)CC4)cc3)cc[n+]([O-])c2cc1OC [drawing 46]
R: COc1cc2nccc(Oc3ccc(NC(=O)C4(C(=O)Nc5ccc(F)cc5OS(=O)(=O)O)CC4)cc3)c2cc1OC [drawing 47]
S: COc1cc2nccc(Oc3ccc(NC(=O)C4(C(=O)O)CC4)cc3)c2cc1OC [drawing 45]
Task: Sort the entries above numerically by AUC(0-t), high end first. List labels; respect the requested ordering.
Output: P, R, Q, S

Just for reference, patent US20200163954A1 is where these values come from.
